Tested on: EKVX NSCLC
MEASUREMENT PROTOCOL: NCI tumour cell line growth inhibition, 48 h
Rule: satisfied for TGI not less than 30 µM, not satisfied for anything less.

Sample answers from the record:
COc1ccc2c(c1)C(=O)c1c-2c(NCCCN(C)C)nc2ccccc12
not satisfied
CCc1nc2c(O)ccc(O)c2nc1C
satisfied
O=C(NO)c1ccc(C(=O)NO)cc1
satisfied
O=C(CCN1CCCCC1CCO)Nc1ccc2c(c1)C(=O)c1ccc(NC(=O)CCN3CCCCC3CCO)cc1C2=O (stereo not given)
not satisfied
C[C@@H]1O[C@@H](O[C@H]2C[C@@H](O)[C@]3(CO)C4C(CC[C@]3(O)C2)[C@@]2(O)CC[C@H](C3=CC(=O)OC3)[C@@]2(C)C[C@H]4O)[C@H](O)[C@H](O)[C@H]1O (stereo not given in full)
not satisfied

Please turn your attention to the following entry.
Prompt: # bool: TGI of CCCCN(CC)C(=O)C(=O)C1C(=O)Nc2ccccc2S1=O (stereo not given) >= 30 µM
Response: satisfied
